MEASUREMENT TARGET: purified HLA DRB1*0404 (Homo sapiens, UniProt P01903+P01911, A100R/A169T/F76Y/I96L/K127E/L162R/M171V/N62H/P40V/Q125Y/R42H/S133A/S149N/S66Y/V209L/W38E)
Construct: purified from EBV transformed homozygous cell lines or single MHC allele transfected 721.221, C1R, or fibroblast lines; made in house
MEASUREMENT DESCRIPTION: HLA-DR radioligand binding inhibition assay, DRB1*0404
CONDITION DETAILS: IC50 nM purified HLA DRB1 *0404, purified HLA DRB1*0404
Measured IC50 values are reported for all entries that follow.
READOUT NAME: IC50 (nM)

INSERT INTO assay_data (compound, units, number) VALUES
  ('CC[C@H](C)[C@H](NC(=O)[C@H](CC(C)C)NC(=O)[C@@H](NC(=O)CNC(=O)CNC(=O)[C@H](CCCCN)NC(=O)[C@H](CC(C)C)NC(=O)[C@@H](NC(=O)[C@H](CCC(=O)O)NC(=O)[C@@H](N)[C@@H](C)O)[C@@H](C)CC)C(C)C)C(=O)N[C@@H](CCC(N)=O)C(=O)N[C@@H](CCCNC(=N)N)C(=O)N[C@@H](CC(N)=O)C(=O)N1CCC[C@H]1C(=O)N[C@@H](CCC(N)=O)C(=O)O [Peptide 9019.0039]', 'nM', 12),
  ('CC[C@H](C)[C@H](N)C(=O)N[C@@H](CCCNC(=N)N)C(=O)N[C@@H](CCCCN)C(=O)N[C@@H](Cc1ccc(O)cc1)C(=O)N[C@H](C(=O)N[C@@H](CCSC)C(=O)N[C@@H](CCCNC(=N)N)C(=O)N[C@@H](CCCNC(=N)N)C(=O)N[C@@H](CC(C)C)C(=O)N[C@@H](CC(C)C)C(=O)N[C@@H](CCC(N)=O)C(=O)N[C@@H](CCC(=O)O)C(=O)N[C@H](C(=O)N[C@@H](CCC(=O)O)C(=O)N[C@@H](CC(C)C)C(=O)O)[C@@H](C)O)[C@@H](C)O [Peptide 9019.0071]', 'nM', 2310);

###

Measured IC50 values are reported for all entries that follow.
MEASUREMENT TARGET: purified HLA DRB1*0405 (Homo sapiens, UniProt P01903+P01911, A100R/A169T/D86S/F76Y/I96L/K127E/L162R/M171V/N62H/P40V/Q125Y/R42H/S133A/S149N/S66Y/V115G/V209L/W38E)
Construct: purified from EBV transformed homozygous cell lines or single MHC allele transfected 721.221, C1R, or fibroblast lines; made in house
MEASUREMENT DESCRIPTION: HLA-DR radioligand binding inhibition assay, DRB1*0405
CONDITION DETAILS: IC50 nM purified HLA DRB1 *0405, purified HLA DRB1*0405
READOUT NAME: IC50 (nM)

INSERT INTO results (molecule, value_comparator, number) VALUES
  ('CC[C@H](C)[C@H](NC(=O)[C@H](CCCNC(=N)N)NC(=O)[C@H](Cc1c[nH]c2ccccc12)NC(=O)[C@H](CO)NC(=O)[C@H](Cc1ccc(O)cc1)NC(=O)[C@@H](N)CCC(N)=O)C(=O)N[C@@H](CC(N)=O)C(=O)NCC(=O)N[C@H](C(=O)N1CCC[C@H]1C(=O)N[C@@H](CCC(N)=O)C(=O)N[C@@H](CCC(N)=O)C(=O)N[C@@H](Cc1c[nH]cn1)C(=O)N[C@H](C(=O)N[C@@H](CCC(N)=O)C(=O)O)[C@@H](C)O)[C@@H](C)CC [Peptide 9019.0138]', '=', 311),
  ('CC[C@H](C)[C@H](NC(=O)[C@H](CS)NC(=O)[C@H](CC(C)C)NC(=O)[C@H](CCCCN)NC(=O)[C@H](CCC(=O)O)NC(=O)[C@H](C)NC(=O)[C@@H](NC(=O)[C@H](CC(C)C)NC(=O)[C@@H]1CCCN1C(=O)[C@@H](NC(=O)[C@@H](N)[C@@H](C)O)[C@@H](C)CC)[C@@H](C)O)C(=O)N[C@@H](Cc1ccc(O)cc1)C(=O)N[C@H](C(=O)N[C@@H](CC(=O)O)C(=O)N[C@@H](CC(N)=O)C(=O)O)[C@@H](C)O [Peptide 1622.01]', '>', 20000),
  ('CC(C)C[C@H](NC(=O)[C@@H](NC(=O)[C@@H](NC(=O)[C@@H]1CCCN1C(=O)[C@H](CC(=O)O)NC(=O)[C@H](CO)NC(=O)[C@H](CCCNC(=N)N)NC(=O)[C@H](CC(N)=O)NC(=O)[C@H](C)NC(=O)[C@H](CO)NC(=O)[C@@H](NC(=O)[C@H](CO)NC(=O)[C@H](CC(N)=O)NC(=O)[C@@H](N)CCC(N)=O)C(C)C)C(C)C)[C@@H](C)O)C(=O)N[C@@H](CC(=O)O)C(=O)O [Peptide 9019.0136]', '>', 20000),
  ('CC[C@H](C)[C@H](NC(=O)[C@@H](NC(=O)[C@@H]1CCCN1C(=O)[C@H](C)N)[C@@H](C)O)C(=O)N[C@@H](CCCNC(=N)N)C(=O)NCC(=O)N[C@@H](CC(=O)O)C(=O)N1CCC[C@H]1C(=O)N[C@@H](CCC(=O)O)C(=O)N[C@@H](CS)C(=O)N[C@@H](Cc1c[nH]cn1)C(=O)N[C@@H](CC(C)C)C(=O)N[C@@H](Cc1ccccc1)C(=O)N[C@@H](Cc1ccc(O)cc1)C(=O)N[C@@H](CC(N)=O)C(=O)O [Peptide 9019.0022]', '>', 20000),
  ('CC(C)C[C@H](NC(=O)CNC(=O)[C@H](CC(C)C)NC(=O)[C@H](Cc1c[nH]cn1)NC(=O)[C@H](Cc1c[nH]cn1)NC(=O)[C@H](CCCCN)NC(=O)CN)C(=O)N[C@@H](CCC(=O)O)C(=O)N[C@@H](CCC(=O)O)C(=O)N1CCC[C@H]1C(=O)N[C@@H](CCCCN)C(=O)N[C@@H](CCCCN)C(=O)N[C@@H](CC(C)C)C(=O)N[C@@H](CCCNC(=N)N)C(=O)N1CCC[C@H]1C(=O)O [Peptide 9019.0187]', '=', 6480);

###

MEASUREMENT TARGET: purified HLA DRB1*0401 (Homo sapiens, UniProt P01903+P01911, A100K/A169T/F76Y/I96L/K127E/L162R/M171V/N62H/P40V/Q125Y/R42H/S133A/S149N/S66Y/V115G/V209L/W38E)
Construct: purified from EBV transformed homozygous cell lines or single MHC allele transfected 721.221, C1R, or fibroblast lines; made in house
MEASUREMENT DESCRIPTION: HLA-DR radioligand binding inhibition assay, DRB1*0401
CONDITION DETAILS: IC50 nM purified HLA DRB1 *0401, purified HLA DRB1*0401
Method: Instead, wells of an opaque white 96-well Optiplate (Packard) are coated with 3 μg (100 μl@ 30 μg/ml) of HLA-specific antibody (Ab) that “capture” complexes of radiolabeled MHC and unlabeled peptide transferred from the molecular binding assay plate in 100 μl of 0.05% NP40/PBS. […] Captured complexes are then measured on a microplate scintillation and luminescence counter (TopCount NXTTM; Packard). […]
READOUT NAME: IC50 (nM)

INSERT INTO assay_data (compound, number) VALUES
  ('CC[C@H](C)[C@H](N)C(=O)N[C@@H](CO)C(=O)N[C@@H](C)C(=O)N[C@H](C(=O)N[C@H](C(=O)NCC(=O)N[C@H](C(=O)N[C@@H](CC(C)C)C(=O)N[C@@H](CC(C)C)C(=O)N[C@H](C(=O)N[C@H](C(=O)N[C@H](C(=O)N[C@@H](CC(C)C)C(=O)NCC(=O)N[C@H](C(=O)O)C(C)C)C(C)C)C(C)C)C(C)C)[C@@H](C)CC)C(C)C)C(C)C [Peptide 9019.0067]', 450),
  ('CSCC[C@H](NC(=O)[C@H](CC(N)=O)NC(=O)[C@H](CCC(N)=O)NC(=O)[C@H](CCC(N)=O)NC(=O)[C@H](C)NC(=O)[C@H](CCC(N)=O)NC(=O)[C@H](CCCNC(=N)N)NC(=O)[C@H](CC(C)C)NC(=O)[C@H](CO)NC(=O)[C@H](CO)NC(=O)[C@H](CCC(=O)O)NC(=O)[C@H](CC(C)C)NC(=O)[C@H](CC(C)C)NC(=O)[C@H](C)NC(=O)[C@@H](N)CCC(=O)O)C(=O)O [Peptide 9019.0014]', 605);

###

Measured IC50 values are reported for all entries that follow.
MEASUREMENT TARGET: purified HLA DRB1*0101 (Homo sapiens, UniProt P01903+P01911, A100R/D57E/F55L/F60I/F76Y/I96L/L162R/M171V/P40L/Q125E/R42F/V115G/Y59C)
Construct: purified from EBV transformed homozygous cell lines or single MHC allele transfected 721.221, C1R, or fibroblast lines; made in house
MEASUREMENT DESCRIPTION: HLA-DR radioligand binding inhibition assay, DRB1*0101
CONDITION DETAILS: IC50 nM purified HLA DRB1 *0101, purified HLA DRB1*0101
READOUT NAME: IC50 (nM)

INSERT INTO results (compound, number) VALUES
  ('CC[C@H](C)[C@H](NC(=O)[C@H](CC(C)C)NC(=O)[C@@H](NC(=O)CNC(=O)CNC(=O)[C@H](CCCCN)NC(=O)[C@H](CC(C)C)NC(=O)[C@@H](NC(=O)[C@H](CCC(=O)O)NC(=O)[C@@H](N)[C@@H](C)O)[C@@H](C)CC)C(C)C)C(=O)N[C@@H](CCC(N)=O)C(=O)N[C@@H](CCCNC(=N)N)C(=O)N[C@@H](CC(N)=O)C(=O)N1CCC[C@H]1C(=O)N[C@@H](CCC(N)=O)C(=O)O [Peptide 9019.0039]', 71),
  ('CSCC[C@H](NC(=O)[C@@H](NC(=O)[C@H](Cc1ccc(O)cc1)NC(=O)[C@H](C)N)C(C)C)C(=O)N[C@@H](C)C(=O)NCC(=O)N[C@H](C(=O)NCC(=O)N[C@@H](CO)C(=O)N1CCC[C@H]1C(=O)N[C@@H](Cc1ccc(O)cc1)C(=O)N[C@H](C(=O)N[C@@H](CO)C(=O)N[C@@H](CCCNC(=N)N)C(=O)N[C@@H](CC(C)C)C(=O)O)C(C)C)C(C)C [Peptide 9019.0077]', 92);
